test system: 966289-007-R4-J1-PDC complex spheroid viability; assay: Anticancer human tumor 966289-007-R4-J1-PDC patient-derived pancreatic adenocarcinoma cell line growth inhibition [RAS]; conditions: second compound 0.003 µM; first compound 0.0316 µM; stronger effect = lower value
Binary label based on viability, T/C with cut-off 90%: below gives satisfied, not below gives not satisfied.

Does this compound meet the criterion viability, T/C < 90%? CC(C)NCC(C(=O)N1CCN(c2ncnc3c2C(C)CC3O)CC1)c1ccc(Cl)cc1 (stereo unspecified) + CCn1c(-c2cc(N3CCN(C)CC3)cnc2C(C)OC)c2c3cc(ccc31)-c1csc(n1)CC(NC(=O)C1CC1C)C(=O)N1CCCC(N1)C(=O)OCC(C)(C)C2 not satisfied

Does this compound meet the criterion viability, T/C < 90%? CCC(CC)c1cc(NC2CCC(N)C2)n2nccc2n1 (stereo unspecified) + CCn1c(-c2cccnc2C(C)OC)c2c3cc(ccc31)N1CCOC(CC(NC(=O)C(C(C)C)N(C)C(=O)C3(F)CCN(C(=O)C#CC(C)(C)N(C)C)CC3)C(=O)N3CCCC(N3)C(=O)OCC(C)(C)C2)C1 not satisfied

Does this compound meet the criterion viability, T/C < 90%? CC(C)n1nc(-c2ccc3oc(N)nc3c2)c2c(N)ncnc21 + CCn1c(-c2cccnc2C(C)OC)c2c3cc(ccc31)N1CCOC(CC(NC(=O)C(C(C)C)N(C)C(=O)C3(F)CCN(C(=O)C#CC(C)(C)N(C)C)CC3)C(=O)N3CCCC(N3)C(=O)OCC(C)(C)C2)C1 satisfied

Does this compound meet the criterion viability, T/C < 90%? CC(Nc1ccc2c(c1)OCCn1cc(N3C(=O)OCC3C(F)F)nc1-2)C(N)=O (stereo unspecified) + CCn1c(-c2cccnc2C(C)OC)c2c3cc(ccc31)N1CCOC(CC(NC(=O)C(C(C)C)N(C)C(=O)C3(F)CCN(C(=O)C#CC(C)(C)N(C)C)CC3)C(=O)N3CCCC(N3)C(=O)OCC(C)(C)C2)C1 not satisfied

Does this compound meet the criterion viability, T/C < 90%? CCC(CC)c1cc(NC2CCC(N)C2)n2nccc2n1 (stereo unspecified) + CCn1c(-c2cc(N3CCN(C)CC3)cnc2C(C)OC)c2c3cc(ccc31)-c1csc(n1)CC(NC(=O)C1CC1C)C(=O)N1CCCC(N1)C(=O)OCC(C)(C)C2 satisfied

Okay, now this compound:
Does this compound meet the criterion viability, T/C < 90%? NC1c2ccccc2OC12CCN(c1cnc3c(N4CCCc5ncccc54)n[nH]c3n1)CC2 (stereo unspecified) + CCn1c(-c2cc(N3CCN(C)CC3)cnc2C(C)OC)c2c3cc(ccc31)-c1csc(n1)CC(NC(=O)C1CC1C)C(=O)N1CCCC(N1)C(=O)OCC(C)(C)C2 not satisfied

###

Each entry below carries its recorded IC50.
Test system: 966289-007-R4-J1-PDC complex spheroid viability
Test: Anticancer human tumor 966289-007-R4-J1-PDC cell line growth inhibition [RAS];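 also: spheroids exposed to agents for one week before readout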
Conditions: curve of first compound; second compound 0.0949 µM
Text: RAS pathway inhibitors in Combinations in Complex Spheroids A high-throughput screen of multi-cell type tumor spheroids was designed to identify active combinations of RAS pathway inhibitors and targeted small molecules. Complex spheroids include a stromal component modeled by human endothelial cells (HUVEC) and fibroblasts modeled by human mesenchymal stem cells (MSCs). […] Compounds. […] If the clinical Cmax for an agent had not been determined, the highest concentration tested was 10 microM. […]

Entry C=CC(=O)N1CCN(c2nc(OCC3CCCN3C)nc3c(F)c(-c4nc(N)cc(C)c4C(F)(F)F)c(Cl)cc23)C(C)C1 (configuration not stated) + CCn1c(-c2cc(N3CCN(C)CC3)cnc2C(C)OC)c2c3cc(ccc31)-c1csc(n1)CC(NC(=O)C1CC1C)C(=O)N1CCCC(N1)C(=O)OCC(C)(C)C2 , IC50 reported as > 1000 nM

***
Entry CC1(O)CCCC1n1c(=O)c(C(F)F)cc2cnc(NC3CCN(S(C)(=O)=O)CC3)nc21 (configuration not stated) + CCn1c(-c2cc(N3CCN(C)CC3)cnc2C(C)OC)c2c3cc(ccc31)-c1csc(n1)CC(NC(=O)C1CC1C)C(=O)N1CCCC(N1)C(=O)OCC(C)(C)C2 , IC50 reported as 96 nM

###

Each entry below carries its recorded viability, T/C.
Test system: 966289-007-R4-J1-PDC complex spheroid viability
Assay: Anticancer human tumor 966289-007-R4-J1-PDC cell line growth inhibition [RAS];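 also: spheroids exposed to agents for one week before readout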;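 as to viability, T/C: percent viability relative to DMSO vehicle control wells as 100%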
Details: second compound 0.0316 µM; first compound 3.16 µM; stronger effect = lower value
From the text: RAS pathway inhibitors in Combinations in Complex Spheroids A high-throughput screen of multi-cell type tumor spheroids was designed to identify active combinations of RAS pathway inhibitors and targeted small molecules. Complex spheroids include a stromal component modeled by human endothelial cells (HUVEC) and fibroblasts modeled by human mesenchymal stem cells (MSCs). […] Compounds. […] If the clinical Cmax for an agent had not been determined, the highest concentration tested was 10 microM. […]
Unit % implied. Number only.

Solved cases (5 shown):
Entry CCC(CC)c1cc(NC2CCC(N)C2)n2nccc2n1 (stereo unspecified) + C=CC(=O)N1CCN(c2nc(OCC3CCCN3C)nc3c(F)c(-c4nc(N)cc(C)c4C(F)(F)F)c(Cl)cc23)C(C)C1 , viability, T/C reported as 2.15

Entry CC(Nc1ccc2c(c1)OCCn1cc(N3C(=O)OCC3C(F)F)nc1-2)C(N)=O (stereo unspecified) + C=CC(=O)N1CCN(c2nc(OCC3CCCN3C)nc3c(F)c(-c4nc(N)cc(C)c4C(F)(F)F)c(Cl)cc23)C(C)C1 , viability, T/C reported as 93.2

Entry CC(=O)OC12COC1CC(O)C1(C)C(=O)C(O)C3=C(C)C(OC(=O)C(O)C(NC(=O)OC(C)(C)C)c4ccccc4)CC(O)(C(OC(=O)c4ccccc4)C21)C3(C)C (stereo unspecified) + C=CC(=O)N1CCN(c2nc(OCC3CCCN3C)nc3c(F)c(-c4nc(N)cc(C)c4C(F)(F)F)c(Cl)cc23)C(C)C1 , viability, T/C reported as 33.2

Entry NC1c2ccccc2OC12CCN(c1cnc3c(N4CCCc5ncccc54)n[nH]c3n1)CC2 (stereo unspecified) + C=CC(=O)N1CCN(c2nc(OCC3CCCN3C)nc3c(F)c(-c4nc(N)cc(C)c4C(F)(F)F)c(Cl)cc23)C(C)C1 , viability, T/C reported as 126

Entry C[C@@H](NC(=O)c1ncnc(N)c1Cl)c1ncc(C(=O)Nc2cc(C(F)(F)F)c(Cl)cn2)s1 + C=CC(=O)N1CCN(c2nc(OCC3CCCN3C)nc3c(F)c(-c4nc(N)cc(C)c4C(F)(F)F)c(Cl)cc23)C(C)C1 , viability, T/C reported as 127

Here is another compound to look at.
Entry C[C@@H](NC(=O)c1ncnc(N)c1Cl)c1ncc(C(=O)Nc2cc(C(F)(F)F)c(Cl)cn2)s1 + C#Cc1c(F)ccc2cc(O)cc(-c3ncc4c(N5CC6CCC(C5)N6)nc(OCC56CCCN5CC(F)C6)nc4c3F)c12 , viability, T/C reported as 117

###

test system: 966289-007-R4-J1-PDC complex spheroid viability; assay: Anticancer human tumor 966289-007-R4-J1-PDC cell line growth inhibition [RAS]; conditions: second compound 0.000949 µM; first compound 1 µM; stronger effect = lower value;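 also: spheroids exposed to agents for one week before readout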;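 as to viability, T/C: percent viability relative to DMSO vehicle control wells as 100%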
readout-type: viability, T/C (%)
Unit % implied. Number only.

Entry CCC(CC)c1cc(NC2CCC(N)C2)n2nccc2n1 (centres undefined) + CCn1c(-c2cccnc2C(C)OC)c2c3cc(ccc31)N1CCOC(CC(NC(=O)C(C(C)C)N(C)C(=O)C3(F)CCN(C(=O)C#CC(C)(C)N(C)C)CC3)C(=O)N3CCCC(N3)C(=O)OCC(C)(C)C2)C1 , viability, T/C reported as 76.3

Entry CC(C)NCC(C(=O)N1CCN(c2ncnc3c2C(C)CC3O)CC1)c1ccc(Cl)cc1 (centres undefined) + CCn1c(-c2cccnc2C(C)OC)c2c3cc(ccc31)N1CCOC(CC(NC(=O)C(C(C)C)N(C)C(=O)C3(F)CCN(C(=O)C#CC(C)(C)N(C)C)CC3)C(=O)N3CCCC(N3)C(=O)OCC(C)(C)C2)C1 , viability, T/C reported as 85.7

Entry Cc1nc(N2CCC3(CC2)COC(C)C3N)c(CO)nc1Sc1ccnc(N)c1Cl (centres undefined) + CCn1c(-c2cc(N3CCN(C)CC3)cnc2C(C)OC)c2c3cc(ccc31)-c1csc(n1)CC(NC(=O)C1CC1C)C(=O)N1CCCC(N1)C(=O)OCC(C)(C)C2 , viability, T/C reported as 85.4

***
Entry CC1(O)CCCC1n1c(=O)c(C(F)F)cc2cnc(NC3CCN(S(C)(=O)=O)CC3)nc21 (centres undefined) + CCn1c(-c2cc(N3CCN(C)CC3)cnc2C(C)OC)c2c3cc(ccc31)-c1csc(n1)CC(NC(=O)C1CC1C)C(=O)N1CCCC(N1)C(=O)OCC(C)(C)C2 , viability, T/C reported as 29.1
